- target_or_test_system: single-chain tethered dimer of HIV protease (Human immunodeficiency virus 1, UniProt P04585)
- test_summary: biochemical
- Format: biochemical
- Design: fused on or other part: A second copy of the same protease unit is joined to the first by a short peptide tether, giving one polypeptide
- condition_description: second table headed Table 2f; read-out: HPLC Ki
readout_label: Ki

Q) Returns the measured Ki for the input compound. Input: ON=C1N(Cc2ccccc2)C(Cc2ccccc2)C(O)C(O)C(Cc2ccccc2)N1Cc1ccccc1 (stereo not shown) [Example 17A]
A) 10 to 1000 nM

* * *

Consider the following compounds and their measured Ki readings.
- target_or_test_system: single-chain tethered dimer of HIV protease (Human immunodeficiency virus 1)
- test_summary: biochemical
- Assay type: biochemical
- Design: fused on or other part: A second copy of the same protease unit is joined to the first by a short peptide tether, giving one polypeptide
- condition_description: Table 2e; read-out: K4 HPLC

Below, 5 compounds whose answers are already recorded.
compound	Ki
O=C1N(Cc2ccccc2)C(CCCCCO)C(O)C(O)C(CCCCCO)N1Cc1ccccc1 (stereo not shown) [Example 16AN]	> 1000 nM
C=CCN1C(=O)N(CC=C)C(CCCCCCCC)C(O)C(O)C1CCCCCCCC (stereo not shown) [Example 16AP]	10 to 1000 nM
COc1cccc(CN2C(=O)N(Cc3cccc(OC)c3)C(Cc3ccccc3OC)C(O)C(O)C2Cc2ccccc2OC)c1 (stereo not shown) [Example 16R]	10 to 1000 nM
NC(=NO)c1cccc(CN2C(=O)N(Cc3cccc(C(N)=NO)c3)C(Cc3cccs3)C(O)C(O)C2Cc2cccs2)c1 (stereo not shown) [16P]	< 10 nM
C=CCCC1C(O)C(O)C(CCC=C)N(CC=C)C(=O)N1CC=C (stereo not shown) [Example 16AS]	> 1000 nM

Continue with the next compound.
Q) Query (compound): C=CCCCC1C(O)C(O)C(CCCC=C)N(Cc2ccccc2)C(=O)N1Cc1ccccc1 (stereo not shown) [Example 16AL] ; field requested: Ki
A) > 1000 nM

* * *

- target_or_test_system: HIV protease (Human immunodeficiency virus type 1 group M subtype B)
- Construct: plasmid containing HIV protease under the control of an inducible T7 promoter; made in house; host or cells: E. coli (inclusion bodies, T7 promoter)
- test_summary: biochemical
- Design: species or system HIV-1
- condition_description: Ki
pKi: −log10 of the molar value.
Documented pKi across a set of compounds

compound	pKi
O=C1N(Cc2cccc(O)c2)C(C(F)Cc2ccccc2)[C@@H](O)[C@@H](Cc2ccccc2)N1Cc1cccc(O)c1 (stereo partly shown)	6.00 to 8.00

Q) Dear colleague, I am looking for the recorded pKi of the following compound: N#CN=C1N(Cc2cccc(N)c2)C(Cc2ccccc2)C(O)C(O)C(Cc2ccccc2)N1Cc1cccc(N)c1 (stereo not shown)
A) > 8.00

Q) Repeat with N#CN=C1N(Cc2ccc3ccccc3c2)C(Cc2ccccc2)C(O)C(O)C(Cc2ccccc2)N1Cc1ccc2ccccc2c1 (stereo not shown)
A) 6.00 to 8.00

Q) Follow-up item: N#CN=C1N(Cc2cccc(CO)c2)C(Cc2ccccc2)C(O)C(O)C(Cc2ccccc2)N1Cc1cccc(CO)c1 (stereo not shown)
A) > 8.00

* * *

- System: HIV-1 (RF) in MT-2 cells
- test_summary: microbe, parasite or virus in culture
- Format: cell-based
- condition_description: Table 2r

molecule	target_or_test_system	IC90
CN(C)P1(=O)N(Cc2ccc(CO)cc2)[C@H](Cc2ccccc2)[C@H](O)[C@@H](O)[C@@H](Cc2ccccc2)N1Cc1ccc(CO)cc1 (stereo partly shown) [28I]	HIV-1 (RF) in MT-2 cells	++ (++=10 to 100 μg/mL)
O=P1(Oc2ccccc2)N[C@H](Cc2ccccc2)[C@H](O)[C@@H](O)[C@@H](Cc2ccccc2)N1 (stereo partly shown) [28A]	HIV-1 (RF) in MT-2 cells	++ (++=10 to 100 μg/mL)

* * *

- target_or_test_system: single-chain tethered dimer of HIV protease (Human immunodeficiency virus 1)
- test_summary: biochemical
- Format: biochemical
- Design: fused on or other part: A second copy of the same protease unit is joined to the first by a short peptide tether, giving one polypeptide
- condition_description: read-out: HPLC Ki; Table 2m
readout_label: Ki

Solved cases (3 shown):
molecule	target_or_test_system	Ki
O=S1(=O)N(Cc2ccc(CO)cc2)C(Cc2ccccc2)C(O)C(O)C(Cc2ccccc2)N1Cc1ccc(CO)cc1 (stereo not shown) [23B]	single-chain tethered dimer of HIV protease (Human immunodeficiency virus 1)	< 10 nM
O=S1(=O)N(CC2CC2)C(Cc2ccccc2)C(O)C(O)C(Cc2ccccc2)N1CC1CC1 (stereo not shown) [Example 23F]	single-chain tethered dimer of HIV protease (Human immunodeficiency virus 1)	< 10 nM
O=[N+]([O-])c1cccc(CN2C(Cc3ccccc3)C(O)C(O)C(Cc3ccccc3)N(Cc3cccc([N+](=O)[O-])c3)S2(=O)=O)c1 (stereo not shown) [23L]	single-chain tethered dimer of HIV protease (Human immunodeficiency virus 1)	10 to 1000 nM

Shifting focus to the molecule that follows.
Q) I am curious: what Ki value has been reported for O=S1(=O)N(Cc2cccc(OCc3ccccc3)c2)C(Cc2ccccc2)C(O)C(O)C(Cc2ccccc2)N1Cc1cccc(OCc2ccccc2)c1 (stereo not shown) [Example 23C] ?
A) 10 to 1000 nM

* * *

readout_label: melting point (°C)
Write the value in °C as a bare number.

Answered examples (4):
molecule	melting point (°C)
N#CN=C1N(CC2CCCCC2)C(Cc2ccccc2)C(O)C(O)C(Cc2ccccc2)N1CC1CCCCC1 (stereo not drawn)	96.4
N#CN=C1N(Cc2cccc(C=NO)c2)C(Cc2ccccc2)C(O)C(O)C(Cc2ccccc2)N1Cc1cccc(C=NO)c1 (stereo not drawn)	121.2
O=C1N(Cc2cccc(NS(=O)(=O)C(F)(F)F)c2)C(Cc2ccccc2)C(O)C(O)C(Cc2ccccc2)N1Cc1cccc(NS(=O)(=O)C(F)(F)F)c1 (stereo not drawn) [15B]	141.8
CCC(O)CN1C(=O)N(CC(O)CC)C(Cc2ccccc2)C(O)C(O)C1Cc1ccccc1 (stereo not drawn) [15VN]	99.2

Q) // lookup melting point for O=C1N(Cc2ccc(OC(F)(F)F)cc2)C(Cc2ccccc2)C(O)C(O)C(Cc2ccccc2)N1Cc1ccc(OC(F)(F)F)cc1 (stereo not drawn)
A) 136.8

Q) Now this one: CN(C)c1cccc(CN2C(=O)N(Cc3cccc(N(C)C)c3)C(Cc3ccccc3)C(O)C(O)C2Cc2ccccc2)c1 (stereo not drawn) [15I]
A) 199.9

Q) And then O=C1N(Cc2cccc(-c3nnn[nH]3)c2)C(Cc2ccccc2)C(O)C(O)C(Cc2ccccc2)N1CC1CC1 (stereo not drawn) , what is it?
A) 171.6

Q) Entry CC(C)=CCN1C(=O)N(CC=C(C)C)C(Cc2ccccc2)C(O)C(O)C1Cc1ccccc1 (stereo not drawn) [Example 2A] please
A) 165.1

* * *

- target_or_test_system: single-chain tethered dimer of HIV protease (Human immunodeficiency virus 1, UniProt P04585)
- test_summary: biochemical
- Type: biochemical
- Parameters: fused on or other part: A second copy of the same protease unit is joined to the first by a short peptide tether, giving one polypeptide
- condition_description: Table 2s; read-out: Ki (HPLC)
pKi: −log10 of the molar value.
readout_label: pKi

Examples from the recorded data:
compound	readout_label	assay_result
Cl.O=C(OCc1ccc(CN2C(=O)N(Cc3ccc(COC(=O)c4ccc(CN5CCOCC5)cc4)cc3)[C@H](Cc3ccccc3)[C@H](O)[C@@H](O)[C@H]2Cc2ccccc2)cc1)c1ccc(CN2CCOCC2)cc1 [29T]	pKi	< 6.00
CCNCc1cccc(C(=O)OCc2ccc(CN3C(=O)N(Cc4ccc(COC(=O)c5cccc(CNCC)c5)cc4)[C@H](Cc4ccccc4)[C@H](O)[C@@H](O)[C@H]3Cc3ccccc3)cc2)c1.Cl [29U]	pKi	< 6.00
Cl.O=C(OCc1ccc(CN2C(=O)N(Cc3ccc(COC(=O)c4cccc(CN5CCOCC5)c4)cc3)[C@H](Cc3ccccc3)[C@H](O)[C@@H](O)[C@H]2Cc2ccccc2)cc1)c1cccc(CN2CCOCC2)c1 [29S]	pKi	< 6.00
CCNCc1ccc(C(=O)OCc2ccc(CN3C(=O)N(Cc4ccc(COC(=O)c5ccc(CNCC)cc5)cc4)[C@H](Cc4ccccc4)[C@H](O)[C@@H](O)[C@H]3Cc3ccccc3)cc2)cc1.Cl [29V]	pKi	< 6.00
CN1CCN(Cc2cccc(C(=O)OCc3ccc(CN4C(=O)N(Cc5ccc(COC(=O)c6cccc(CN7CCN(C)CC7)c6)cc5)[C@H](Cc5ccccc5)[C@H](O)[C@@H](O)[C@H]4Cc4ccccc4)cc3)c2)CC1.Cl.Cl [29Y]	pKi	6.00 to 8.00

As a next step, examine the compound that follows.
Q) I would be grateful if you could share the reported pKi for Cl.O=C(OCc1ccc(CN2C(=O)N(Cc3ccc(COC(=O)c4ccc(CNCCO)cc4)cc3)[C@H](Cc3ccccc3)[C@H](O)[C@@H](O)[C@H]2Cc2ccccc2)cc1)c1ccc(CNCCO)cc1 [29W] .
A) 6.00 to 8.00
